Molecular target: human M2 receptor (Homo sapiens)
Sequence (P08172 1-466): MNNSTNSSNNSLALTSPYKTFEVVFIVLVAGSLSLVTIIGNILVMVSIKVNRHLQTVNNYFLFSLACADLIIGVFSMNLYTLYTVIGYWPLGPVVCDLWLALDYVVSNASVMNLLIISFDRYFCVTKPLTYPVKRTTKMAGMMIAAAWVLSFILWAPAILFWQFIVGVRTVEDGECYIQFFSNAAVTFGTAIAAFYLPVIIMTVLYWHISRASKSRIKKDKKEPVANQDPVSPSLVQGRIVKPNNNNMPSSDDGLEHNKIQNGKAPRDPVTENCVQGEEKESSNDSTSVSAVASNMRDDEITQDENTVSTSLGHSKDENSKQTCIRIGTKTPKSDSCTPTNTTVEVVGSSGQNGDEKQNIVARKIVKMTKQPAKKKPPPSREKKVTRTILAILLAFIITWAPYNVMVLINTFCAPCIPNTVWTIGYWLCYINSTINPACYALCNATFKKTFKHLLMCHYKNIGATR
Assay: Functional M2-GIRK1/4 activation test: allosteric potency (EC50) and efficiency
Conditions: Receptor activity EC50, CHO-DUKX-M2-GIRK cells; acetylcholine at EC20; in some cases mean of two or more determinations
Please respond with reported EC50 for every item in the list.
Numbers only; they are read as µM.

### Prompt Item under review: CC[C@H](NC(=O)c1cn(-c2ncc(F)cc2F)c2nc(N3CCCN(CCO)C3=O)ccc2c1=O)C(F)(F)F . Reported EC50?
### Response 0.4

### Prompt Next up: O=C(N[C@H](C1CC1)C(F)(F)F)c1cn(-c2ncc(F)cc2F)c2nc(N3CCCN(CCO)C3=O)ccc2c1=O
### Response 0.22

### Prompt Proceed to O=C(NC1(C(F)(F)F)CCC1)c1cn(-c2ncc(F)cc2F)c2nc(N3C[C@@H](O)[C@H](O)C3)ccc2c1=O
### Response 0.36

### Prompt Next entry: C[C@H](NC(=O)c1cn(-c2ncc(F)cc2F)c2nc(N3C[C@@H](O)CC3=O)ccc2c1=O)C(F)(F)F
### Response 0.24

### Prompt Ok, now CC(C)C(NC(=O)c1cn(-c2ncc(F)cc2F)c2nc(N3C[C@@H](O)CC3=O)ccc2c1=O)C(F)(F)F (stereo partly shown)
### Response 0.089

### Prompt Now consider CC[C@H](NC(=O)c1cn(-c2ncc(F)cc2F)c2nc(N3C(=O)C4(CC4)C(O)C3C)ccc2c1=O)C(F)(F)F (stereo partly shown) .
### Response 0.145

### Prompt Now this one: O=C(NC(c1ccc(F)cc1)C(F)(F)F)c1cn(-c2ncc(F)cc2F)c2nc(N3C[C@@H](O)CC3=O)ccc2c1=O (single isomer, unassigned) [Example 13]
### Response 0.13

### Prompt Also CC1(O)CCN(c2ccc3c(=O)c(C(=O)Nc4c(Cl)cccc4Cl)cn(-c4ncc(F)cc4F)c3n2)C1 (racemic) , if possible.
### Response 0.365

### Prompt Also, O=C(NC(c1ccccc1Cl)C(F)(F)F)c1cn(-c2ncc(F)cc2F)c2nc(N3CCNC3=O)ccc2c1=O (racemic) [Example 147] please.
### Response 0.055

### Prompt // query: O=C(NC(C1CC1)C(F)(F)F)c1cn(-c2ncc(F)cc2F)c2nc(N3CC4CC4(O)C3)ccc2c1=O (stereo not shown)
### Response 0.022

### Prompt Proceed to CC(C)(C)[C@H](NC(=O)c1cn(-c2ncc(F)cc2F)c2nc(N3CCNC3=O)ccc2c1=O)C(F)(F)F
### Response 0.026

### Prompt And then CCC(NC(=O)c1cn(-c2ncc(F)cc2F)c2nc(N3C[C@@H](O)[C@H](O)C3)ccc2c1=O)C(F)(F)C(F)(F)F (mixture of isomers) [Example 95] , what is it?
### Response 0.026

### Prompt Check CC[C@@H](NC(=O)c1cn(-c2ncc(F)cc2Cl)c2nc(N3CCC(C)(O)C3)ccc2c1=O)C(F)(F)F (mixture of isomers) too.
### Response 0.56

### Prompt Follow-up entry: O=C(NC(c1cccc(F)c1)C(F)(F)F)c1cn(-c2ncccc2Cl)c2nc(N3C[C@@H](O)CC3=O)ccc2c1=O (stereo partly shown)
### Response 0.145

### Prompt Here is the next compound: C[C@@H]1CN(c2ccc3c(=O)c(C(=O)N[C@@H](C4CC4)C(F)(F)F)cn(-c4ncc(F)cc4F)c3n2)C(=O)N1
### Response 0.047

### Prompt Check O=C(NC(C(F)(F)F)C(F)(F)F)c1cn(-c2ncc(F)cc2F)c2nc(N3CC4CC4(O)C3)ccc2c1=O (single isomer, unassigned) [Example 58] too.
### Response 0.011

### Prompt Entry to check: CCC(NC(=O)c1cn(-c2ncc(F)cc2F)c2nc(N3CCNC3=O)ccc2c1=O)C(F)(F)C(F)(F)F (single isomer, unassigned) [Example 166]
### Response 0.03

### Prompt Further, for O=C(NC1(C(F)(F)F)CCC1)c1cn(-c2ncc(F)cc2F)c2nc(N3CCNC3=O)ccc2c1=O ?
### Response 0.375

### Prompt Consider next the compound CC[C@H](NC(=O)c1cn(-c2ncc(F)cc2F)c2nc(N3CCN(CCO)C3=O)ccc2c1=O)C(F)(F)F in the same way.
### Response 0.79

### Prompt Next compound up: O=C(NC(c1cccc(Cl)c1)C(F)(F)F)c1cn(-c2ncc(F)cc2F)c2nc(N3C[C@@H](O)CC3=O)ccc2c1=O (stereo partly shown)
### Response 0.022

### Prompt // next record CC(NC(=O)c1cn(-c2ncc(F)cc2F)c2nc(N3C[C@@H](O)CC3=O)ccc2c1=O)C(F)(F)C(F)(F)F (single isomer, unassigned) [Example 78]
### Response 0.044

### Prompt Note, next up: CC(C)(C)[C@@H](NC(=O)c1cn(-c2ncc(F)cc2F)c2nc(N3CCCN(CCO)C3=O)ccc2c1=O)C(F)(F)F
### Response 0.05

### Prompt Query O=C(NC(c1ccccc1Cl)C(F)(F)F)c1cn(-c2ncc(F)cc2F)c2nc(N3C[C@@H](O)[C@H](O)C3)ccc2c1=O (single isomer, unassigned) [Example 84] next
### Response 0.02

### Prompt Repeat for the following compound: CC(C)(C)[C@@H](NC(=O)c1cn(-c2ncc(F)cc2F)c2nc(N3C[C@@H](O)[C@H](O)C3)ccc2c1=O)C(F)(F)F
### Response 0.019

### Prompt Please answer likewise for O=C(N[C@H](C1CC1)C(F)(F)F)c1cn(-c2ncc(F)cc2F)c2nc(N3CC4CC4(O)C3)ccc2c1=O (single isomer, unassigned) [Example 38]
### Response 0.018

* * *

Molecular target: UniProtKB P08172
Assay: Functional M2-GIRK1/4 activation test: allosteric potency (EC50) and efficiency
Conditions: read-out: Efficiency, boosting of the acetylcholine effect at EC20 acetylcholine concentration; CHO-DUKX-M2-GIRK cells
Please provide measured Emax for the entries that follow.
The response must be a number in % with no trailing unit.

### Prompt Param readout = Emax; param system = UniProtKB P08172; param query = O=C(N[C@H](C1CC1)C(F)(F)F)c1cn(-c2ncc(F)cc2Cl)c2nc(N3C[C@@H](O)[C@@H](O)C3)ccc2c1=O ; response: value
### Response 92

### Prompt And for CC(NC(=O)c1cn(-c2ncc(F)cc2F)c2nc(N3C[C@@H](O)[C@H](O)C3)ccc2c1=O)(C(F)(F)F)C(F)(F)F ?
### Response 99.5

### Prompt Same read-out for O=C(NC(C(F)(F)F)C(F)(F)F)c1cn(-c2ncc(F)cc2F)c2nc(N3CCC[C@@H]3CO)ccc2c1=O ?
### Response 100

* * *

Target: human M2 receptor (Homo sapiens, UniProt P08172)
Experiment: Functional M2-GIRK1/4 activation test: allosteric potency (EC50) and efficiency
Conditions: read-out: Efficiency, boosting of the acetylcholine effect at EC20 acetylcholine concentration; CHO-DUKX-M2-GIRK cells
Hi there, I'd appreciate the recorded Emax for every entry that follows.
Give a bare numeral; the unit % is implied.

### Prompt Find the recorded Emax belonging to CC[C@H](NC(=O)c1cn(-c2ncc(F)cc2F)c2nc(N3CC(O)C3)ccc2c1=O)C(F)(F)F [Example 133] and report it.
### Response 92

### Prompt Follow-up item: CC[C@H](NC(=O)c1cn(-c2ncc(F)cc2F)c2nc(N3CCN(CCO)C3=O)ccc2c1=O)C(F)(F)F [Example 119]
### Response 92

### Prompt Next compound up: O=C(N[C@H](C1CC1)C(F)(F)F)c1cn(-c2ncc(F)cc2Cl)c2nc(N3C[C@@H](O)CC3=O)ccc2c1=O [Example 21]
### Response 98.5

### Prompt What do you get for C[C@@H]1CN(c2ccc3c(=O)c(C(=O)N[C@@H](C4CC4)C(F)(F)F)cn(-c4ncc(F)cc4F)c3n2)C(=O)N1 [Example 142] ?
### Response 94.5

### Prompt Item: CC1(C)C(=O)N(c2ccc3c(=O)c(C(=O)N[C@H](C4CC4)C(F)(F)F)cn(-c4ncc(F)cc4F)c3n2)C2(CC2)C1O (stereo partly drawn) [Example 32]
### Response 89.5

### Prompt And the next one, CC1CC(=O)N(c2ccc3c(=O)c(C(=O)N[C@H](C4CC4)C(F)(F)F)cn(-c4ncc(F)cc4F)c3n2)C1 (single isomer, unassigned) [Example 28] ?
### Response 100
